Tested on: T-cell activation in human whole blood
Assay: Example 5: IFN-g, IL-2 and IL-17A release in thapsigargin stimulated human whole blood
Assay type: cell-based
Conditions: 24 Hr, at least 2 replicate experiments, read-out: Average IC50, IL-2
readout.type: IC50 (nM)
API: value field is a number in nM; no unit string.

Guide cases for IC50, answers given:
Request: What value of IC50 has been recorded for this entry: H-C(1)SASVEC(2)KQKC(3)LKAIGSIFGKC(1)[Nle]NKKC(2)KC(3)YPR-NH2 [Peptide 108]
Result: 0.12

Request: Can you handle H-P[Nle]E[Nle]RC(1)SASVEC(2)KQKC(3)LAAIGSIFGKC(1)[Nle]NKKC(2)KC(3)YPR-OH [Peptide 100] next?
Result: 0.095

Request: Can you handle H-NMDMRC(1)SASVEC(2)KQKC(3)LAAIGSIFGKC(1)MNKKC(2)KC(3)YPR-NH2 [Peptide 53] next?
Result: 0.083

Request: Can you handle H-NMDMRC(1)SASVEC(2)KQKC(3)LKAIGSIFGKC(1)MNKKC(2)KC(3)YPR-OH [Peptide 3] next?
Result: 0.022

Now consider a different substance.
Request: What value of IC50 has been recorded for this entry: H-P[Nle]D[Nle]RC(1)SASVEC(2)KQKC(3)LKAIGSIFGKC(1)[Nle]NKKC(2)KC(3)YPR-NH2 [Peptide 42]
Result: 0.03
